Provide the recorded GI50 for the entries that follow.
# Test system: UACC-257
# Protocol description: NCI tumour cell line growth inhibition, 48 h
Active and inactive are the calls of the source. Rule as the data show it: active = GI50 up to about 1.1 µM and inactive = higher.

Some solved cases for reference:
{"Molecule": "NCCN1C(=O)C2C3c4ccccc4C(c4ccccc43)C2C1=O (stereo unspecified)", "Result": "> 100 µM (inactive)"}
{"Molecule": "CC1CN=C(Nc2cccc(C(F)(F)F)c2)S1 (stereo unspecified)", "Result": "52.5 µM (inactive)"}
{"Molecule": "Nc1ncnc2c1nc(-c1ccccc1)n2C1OC(CO)C(O)C1O (stereo unspecified)", "Result": "> 100 µM (inactive)"}

I would be grateful if you could provide GI50 for each of the following entries.
1. Cc1[nH]c(=O)nc(S)c1C(=O)NC1C2CCCCC2NC2CCCCC21 (stereo unspecified)
2. O=S(=O)(SCc1ccccc1)C(c1ccccc1)c1ccccc1
3. COc1cc([C@H]2CC(=O)C[C@H](c3cc(OC)c(OC)c(OC)c3)C23C(=O)c2ccccc2C3=O)cc(OC)c1OC

Reply text:
1: 16.3 µM (inactive); 2: 32.9 µM (inactive); 3: > 100 µM (inactive)

I would be grateful if you could provide GI50 for each of the following entries.
1. CCCCCCCCCCCCCCCCOP(=O)(O)Oc1ccc(/C=C\c2ccc(OP(=O)(O)OCCCCCCCCCCCCCCCC)cc2)cc1
2. COc1ccc2oc(=O)c(-c3csc(C)n3)cc2c1

Reply text:
["> 100 µM (inactive)", "> 100 µM (inactive)"]

I would be grateful if you could provide GI50 for each of the following entries.
1. CN(C)CC1CCCC/C1=N/OC(=O)c1ccc(Cl)c(Cl)c1 (stereo unspecified)
2. c1nnc(NCNc2nncs2)s1
3. CCOP(=O)(OCC)[C@]12C[C@@H](C)C=C[C@H]1COC2=O

Reply text:
["> 100 µM (inactive)", "47.8 µM (inactive)", "> 100 µM (inactive)"]
